QUANTITY NAME: melting point (°C)

Solved cases (2 shown):
{"SMILES RECORD": "Cn1nccc(NCC(=O)N2CCC(CNc3ccccc3C(F)(F)F)CC2)c1=O", "UNIT": "°C", "melting point": 182}
{"SMILES RECORD": "Cn1nccc(OCC(=O)N2CCC(Oc3ccccc3OC(F)(F)F)CC2)c1=O", "UNIT": "°C", "melting point": 126}

I = Cn1nccc(NC(=O)N2CCC(Oc3ccc(Cl)cc3Cl)CC2)c1=O
II = C[C@@H](Nc1ccnn(C)c1=O)C(=O)N1CCC(Oc2cc(C(F)(F)F)ccc2Cl)CC1
Which shows the larger melting point value: I or II ? When you have decided, please share the label of that item. I

a = Cn1nccc(NCC(=O)N2CC(Oc3ccccc3C(F)(F)F)C2)c1=O
b = COc1cnn(C)c(=O)c1NCC(=O)N1CCC(Oc2cc(C(F)(F)F)ccc2Cl)CC1
// compare measured melting point, left a , right b , return larger Give the chosen item's label as your response. a
